Values compiled from paper PMC13005684.

Test system: MDA-MB-231 cells
Assay: cells
Format: cell-based
Details: Homo sapiens, MDA-MB-231, 72 h, read-out: 3-day IC50
ASSAY READOUT: IC50 (nM)
State the answer as a number, implicitly in nM.

The recorded IC50 with MDA-MB-231 cells for COC1=C2C[C@@H](C)C[C@H](OC)[C@H](O)[C@@H](C)/C=C(\C)[C@H](OC(N)=O)[C@@H](OC)/C=C\C=C(/C)C(=O)NC(=CC1=O)C2=O was 3700
